Every entry's value here was drawn from ChEMBL document CHEMBL1201862.

# Tested on: EKVX
# Experiment summary: NCI tumour cell line growth inhibition, 48 h
Active and inactive are the calls of the source. No stated cut-off is given here; in the data, active = GI50 up to about 1.1 µM and inactive = higher.
// reported GI50 for each item listed

>  <Compound>
CCOC(=O)/C(=C/c1cc(OC)ccc1OC)CC(=O)O

>  <GI50>
> 100 µM (inactive)

$$$$
>  <Compound>
CC1=C(N2CC2)C(=O)c2nc3n(c2C1=O)CCC3O (stereo not drawn)

>  <GI50>
0.438 µM (active)

$$$$

Proceeding to the next compound to report its GI50.
Query C#CCOCC12C=CC(O1)C1C(=O)OCC12 (stereo not drawn) yields GI50 of > 100 µM (inactive)

###

# Test system: IGROV-1
# Experiment summary: NCI tumour cell line growth inhibition, 48 h
Active and inactive are the calls of the source. No stated cut-off is given here; in the data, active = GI50 up to about 1.1 µM and inactive = higher.
Value type: GI50

Past entries and their recorded results:
>  <Compound>
CCn1c2c(c3c(C(=O)OC)c(O)ccc31)C(=O)c1ccccc1C2=O

>  <Value observed>
3.61 µM (inactive)

$$$$
>  <Compound>
O=C(O)c1ccccc1NC(=O)C1CCCCC1

>  <Value observed>
> 100 µM (inactive)

$$$$
>  <Compound>
CC12CCC3(C1)[C@H](CC2=O)C[C@@H](OC(=O)c1ccccc1)C1C(C)(CO)CCC[C@@]13C (stereo partly specified)

>  <Value observed>
6.49 µM (inactive)

$$$$
>  <Compound>
CC1(C)CC2(C)OC(=N)C1(C#N)C2(C#N)C#N (stereo unspecified)

>  <Value observed>
15 µM (inactive)

$$$$
>  <Compound>
OCC(O)COCn1cc(Cn2ncc3c(O)ncnc32)nn1 (stereo unspecified)

>  <Value observed>
> 100 µM (inactive)

$$$$
>  <Compound>
CC1(O)C(=O)OC2CC([C@]3(O)CCC4[C@@H]5C[C@H]6O[C@]67[C@@H](O)C=CC(=O)[C@]7(C)C5CC[C@@]43C)C1(C)C2 (stereo partly specified)

>  <Value observed>
23.1 µM (inactive)

$$$$

Query CC/C=N\N1C(N)=C(C#N)C(C#N)(C#N)C1CC (stereo unspecified) yields GI50 of 63.1 µM (inactive)

Query O=C1OCC(C(=O)c2cccc(O)c2)C1=O (stereo unspecified) yields GI50 of > 100 µM (inactive)

Query C=C1C(=O)O[C@H]2C[C@@H]1C(=O)CC(C)CCCC(C)=CCC[C@@]2(C)O (stereo partly specified) yields GI50 of > 25 µM (inactive)

Query Cc1cccc(C(C)C)c1NC(=O)CC1Sc2ccccc2NC1=O (stereo unspecified) yields GI50 of > 100 µM (inactive)

Query `O=[N+]([O-])c1ccc(/C=C/c2csnn2)cc1` yields GI50 of > 100 µM (inactive)

Query `CCOC(=O)c1nnsc1NC(=O)NCCCCCCn1c(=O)n(CCCCCCNC(=O)Nc2snnc2C(=O)OCC)c(=O)n(CCCCCCNC(=O)Nc2snnc2C(=O)OCC)c1=O` yields GI50 of 32.1 µM (inactive)

Query CC1OC(O[C@H]2C3C=CO[C@@H](OC4OC(CO)C(O)C(O)C4O)C3[C@@]3(COC(=O)/C=C/c4ccccc4)O[C@@H]23)C(O)C(O)C1O (stereo partly specified) yields GI50 of > 100 µM (inactive)

Query `COc1cc2c(cc1OC)CCN=C2` yields GI50 of > 100 µM (inactive)

###

# System: SN12C
# Experiment summary: NCI tumour cell line growth inhibition, 48 h
The source made the active and inactive calls. Cut-off read from the data, not from the text of the source: active = GI50 up to about 1.1 µM and inactive = higher.
// reported GI50 for each item listed

Past entries and their recorded results:
>  <Smiles representation>
O=C1O[C@H](COC(=O)c2ccccc2)[C@@H](OC(=O)c2ccccc2)C=C1OC(=O)c1ccccc1

>  <GI50>
18.8 µM (inactive)

$$$$
>  <Smiles representation>
O=C(O)c1ccccc1NC(=O)C1CCCCC1

>  <GI50>
> 100 µM (inactive)

$$$$
>  <Smiles representation>
CC1=NN(C2=NS(=O)(=O)c3ccccc3N2C)C(=O)C1

>  <GI50>
> 100 µM (inactive)

$$$$
>  <Smiles representation>
C#Cc1cccc(NC(=O)/C=C\C(=O)O)c1

>  <GI50>
> 100 µM (inactive)

$$$$
>  <Smiles representation>
Cc1noc(C)c1-n1nc2ccc3nonc3c2n1

>  <GI50>
> 100 µM (inactive)

$$$$

Proceeding to the next compound to report its GI50.
Item: `O=C(O)C12CCCC(CCC1)C2` | System: SN12C | GI50: > 100 µM (inactive)
